- System: Streptococcus pyogenes
- PROTOCOL: Antibacterial activity against clinical isolate Streptococcus pyogenes 3565
- Type: functional
Kindly state MIC for each of the entries shown.

Worked cases, answers included:
molecule=CC[C@H]1OC(=O)[C@H](C)[C@@H](O[C@H]2C[C@@](C)(OC)[C@@H](O)[C@H](C)O2)[C@H](C)[C@@H](O[C@@H]2O[C@H](C)C[C@H](N(C)CCCNC(=O)CCCNc3ccnc4cc(Cl)ccc34)[C@H]2O)[C@](C)(O)C[C@@H](C)CN(C)[C@H](C)[C@@H](O)[C@]1(C)O quantity=MIC recorded_value="16 µg/mL"
molecule="CC[C@H]1OC(=O)[C@H](C)[C@@H](O[C@H]2C[C@@](C)(OC)[C@@H](O)[C@H](C)O2)[C@H](C)[C@@H](O[C@@H]2O[C@H](C)C[C@H](N(C)C)[C@H]2O)[C@](C)(O)C[C@@H](C)CN(C)[C@H](C)[C@@H](O)[C@]1(C)O [AZITHROMYCIN]" quantity=MIC recorded_value="0.125 µg/mL"
molecule=CC[C@H]1OC(=O)[C@H](C)[C@@H](O[C@H]2C[C@@](C)(OC)[C@@H](O)[C@H](C)O2)[C@H](C)[C@@H](O[C@@H]2O[C@H](C)C[C@H](N(C)C(=O)CCCNc3ccnc4cc(Cl)ccc34)[C@H]2O)[C@](C)(O)C[C@@H](C)CN(C)[C@H](C)[C@@H](O)[C@]1(C)O quantity=MIC recorded_value="16 µg/mL"

Each molecule below has a recorded value; state its MIC.
1. CC[C@H]1OC(=O)[C@H](C)[C@@H](O[C@H]2C[C@@](C)(OC)[C@@H](O)[C@H](C)O2)[C@H](C)[C@@H](O[C@@H]2O[C@H](C)C[C@H](N(C)C(=O)CNc3ccnc4cc(Cl)ccc34)[C@H]2O)[C@](C)(O)C[C@@H](C)CN(C)[C@H](C)[C@@H](O)[C@]1(C)O
2. CC[C@H]1OC(=O)[C@H](C)[C@@H](O)[C@H](C)[C@@H](O[C@@H]2O[C@H](C)C[C@H](N(C)CCCNc3ccnc4cc(Cl)ccc34)[C@H]2O)[C@](C)(O)C[C@@H](C)CN(C)[C@H](C)[C@@H](O)[C@]1(C)O
3. CC[C@H]1OC(=O)[C@H](C)[C@@H](O)[C@H](C)[C@@H](O[C@@H]2O[C@H](C)C[C@H](N(C)CCCNC(=O)CCCNc3ccnc4cc(Cl)ccc34)[C@H]2O)[C@](C)(O)C[C@@H](C)CN(C)[C@H](C)[C@@H](O)[C@]1(C)O
4. CC[C@H]1OC(=O)[C@H](C)[C@@H](O[C@H]2C[C@@](C)(OC)[C@@H](O)[C@H](C)O2)[C@H](C)[C@@H](O[C@@H]2O[C@H](C)C[C@H](N(C)Cc3cn(CCCNc4ccnc5cc(Cl)ccc45)nn3)[C@H]2O)[C@](C)(O)C[C@@H](C)CN(C)[C@H](C)[C@@H](O)[C@]1(C)O
5. CC[C@H]1OC(=O)[C@H](C)[C@@H](O[C@H]2C[C@@](C)(OC)[C@@H](O)[C@H](C)O2)[C@H](C)[C@@H](O[C@@H]2O[C@H](C)C[C@H](N(C)CCCNc3ccnc4cc(Cl)ccc34)[C@H]2O)[C@](C)(O)C[C@@H](C)CN(C)[C@H](C)[C@@H](O)[C@]1(C)O

### Response
1: 4 µg/mL; 2: > 64 µg/mL; 3: > 64 µg/mL; 4: 0.5 µg/mL; 5: 16 µg/mL
